Molecular target: tau-tau binding (Homo sapiens, UniProt P10636)
Sequence (P10636 1-441 isoform P10636-8): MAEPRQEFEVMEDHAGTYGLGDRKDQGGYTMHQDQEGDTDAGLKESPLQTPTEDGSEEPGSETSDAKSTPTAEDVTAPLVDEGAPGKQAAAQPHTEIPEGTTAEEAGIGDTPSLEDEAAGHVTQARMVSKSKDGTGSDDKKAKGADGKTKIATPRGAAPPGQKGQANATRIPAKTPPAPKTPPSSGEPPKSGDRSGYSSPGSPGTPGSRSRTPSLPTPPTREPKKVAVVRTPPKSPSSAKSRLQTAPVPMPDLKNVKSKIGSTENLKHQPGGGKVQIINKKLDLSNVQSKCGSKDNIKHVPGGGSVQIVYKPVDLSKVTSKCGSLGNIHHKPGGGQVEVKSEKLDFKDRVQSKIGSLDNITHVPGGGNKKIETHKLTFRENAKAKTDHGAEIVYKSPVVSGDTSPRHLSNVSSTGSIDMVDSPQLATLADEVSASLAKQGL
Assay: Cell-based assay I ('T40/12 kD'), production of the 12 kD fragment
Details: apparent KI calculated from T40/12 kD cell data; assumes intracellular tau 500 nM, tau-tau Kd 22 nM
Assay Metric: pKi
Scale: negative log10 of molar concentration, which is what pKi denotes.

Some solved entries appear below for comparison.
Cc1cc(OS(=O)(=O)O)c2ccccc2c1OS(=O)(=O)O [DH13] = 6.58
CC1=CC(=O)c2ccccc2C1=O [Compound K3, 2-methyl-1,4-naphthoquinone] = 6.89
CC(=O)Oc1c(C)c(C)c(OC(C)=O)c2ccccc12 [DH11] = 6.17
CC1=C(C)C(=O)c2ccccc2C1=O [DH10, 2,3-dimethyl-1,4-naphthoquinone] = 6.66
CC(=O)Oc1cc(C)c(OC(C)=O)c2ccccc12 [DH9] = 6.90
O=C(O)c1cc(O)c2ccccc2c1O [DH5] = 6.93

We now examine a further molecule.
Which value of pKi has been reported for CC(C)=CCC1=C(O)C(=O)c2ccccc2C1=O [DH1] in the records?
6.29
